Catalogue of INHIBITION values
- Test system: Plasmodium berghei
- assay remarks: Screen against P. berghei liver stage (PbLuc), transformed with Luciferase, at 2uM
- Assay type: functional, HepG2
- condition details: tested at 2 uM
In all, about 68,000 compounds went through this assay and about 2,700 (4%) showed an effect of 50% or more. The entries come from a sample that favours strong results as a whole.
Your reply should be a number followed by the unit it is expressed in.

# mol smiles, target of assay, INHIBITION
data = [
    ("COCc1ncc(-c2nccn2CCn2cnnc2)cn1", "Plasmodium berghei", "-0.15%"),
]

Consider `CCCSc1ncc(-c2nccn2CCC(N)=O)cn1` . Its measured INHIBITION is 60.13%

Consider `COc1ncc(-c2nccn2CCN(C)C)cn1` . Its measured INHIBITION is -37.29%

Consider `COC(=O)CCCn1ccnc1-c1ccccc1` . Its measured INHIBITION is 1.42%

Consider `COc1cccc(-c2cc(NCC(=O)O)nc3[nH]ccc23)n1` . Its measured INHIBITION is 74.44%

Consider `COc1cccc(-c2cc(NCCO)nc3[nH]ccc23)n1` . Its measured INHIBITION is 0.51%

Consider `COCCCn1ccnc1-c1cnc(OC)nc1` . Its measured INHIBITION is -26.85%

* * *

Catalogue of INHIBITION values
- Test system: Plasmodium berghei
- assay remarks: Screen against P. berghei liver stage (PbLuc), transformed with Luciferase, at 2uM
- Format: functional, HepG2
- condition details: tested at 2 uM
About 2,700 (4%) of roughly 68,000 compounds showed an effect of 50% or more. The entries come from a sample that favours strong results as a whole.
Please state the figure in %; there is no need to write the unit.

Below are worked cases with known answers.
# molecule, INHIBITION [%]
data = [
    ("O=c1ccc2c(n1CCN1CCCC1)CCN(Cc1ccoc1)CC2", -1.79),
    ("CC(C)C(C#N)N1CCN(Cc2nccn2CC(F)(F)F)CC1 (configuration not stated)", -16.4),
    ("O=C(C(c1ccc(F)cc1)N1CCCCC1)N1CCn2cncc2C1 (configuration not stated)", 50.59),
    ("Fc1cnc(N2CCC3(CC2)CC(OCc2cccnc2)CO3)nc1 (configuration not stated)", 11.18),
    ("COC(=O)CCNC(=O)c1coc(COc2ccc(F)cc2)n1", 56.16),
    ("CN(C)CCOC1CC2(CCN(c3cnccn3)CC2)c2ccccc21 (configuration not stated)", 20.21),
    ("CC(C(=O)N1CCn2cncc2C1)N1CCCC1 (configuration not stated)", 17.2),
    ("CC[C@@H](CO)NC(=O)c1coc(COc2ccc3sc(C)nc3c2)n1", -10.58),
]

Consider NC1CCc2c(ccc(=O)n2CC2CC2)C1 (configuration not stated) . Its measured INHIBITION is 24.86

Consider `CC(C)n1c(=O)[nH]c2cn(-c3ccc(Br)cc3)c(=O)n21` . Its measured INHIBITION is 22.07

Consider `CCc1nc(C)sc1CN1CC[C@](O)(CC)[C@H](O)C1` . Its measured INHIBITION is 20.36

Consider `CC[C@@H](CO)NC(=O)c1coc(COc2ccc(OC)cc2)n1` . Its measured INHIBITION is 53.26

* * *

Catalogue of INHIBITION values
- Tested on: Plasmodium berghei
- assay remarks: Screen against P. berghei liver stage (PbLuc), transformed with Luciferase, at 2uM
- Format: functional, HepG2
- condition details: tested at 2 uM
Out of some 68,000 compounds screened, about 2,700 (4%) showed an effect of 50% or more. The sample as a whole holds a higher share of strong results than the screen did.

# molecule, INHIBITION
data = [
    ("COc1nc2ccn(CCc3scnc3C)c(=O)c2cc1C#N", "0.31%"),
    ("CC(NC(=O)CCCOc1ccccc1Cl)c1ccncc1 (configuration not stated)", "-37.84%"),
    ("Cc1ccccc1C1CCCN1Cc1nc2c(cnn2C)c(=O)[nH]1 (configuration not stated)", "-29.69%"),
    ("COc1ccc(Cn2cc(C(=O)N(C)Cc3cnccn3)nn2)cc1", "-21.09%"),
    ("CCNC(=O)[C@@H]1C[C@H](NC(=O)Cn2ccnc2)CN1Cc1ccsc1", "-35.46%"),
]

Plasmodium berghei data for `Cc1noc(Cl)c1CCC(=O)N1CCN(Cc2ccncc2)CC1` ; its INHIBITION: 62.13%

Plasmodium berghei data for `Cn1ccnc1-c1ccc(NCc2cn3c(n2)SCC3)nn1` ; its INHIBITION: -75.92%

Plasmodium berghei data for `CCN1CCN(C(=O)CCc2c(C)noc2Cl)CC1` ; its INHIBITION: -61.5%

Plasmodium berghei data for `Cc1noc(Cl)c1CCC(=O)N1CCN(CC(C)(C)O)CC1` ; its INHIBITION: 21.89%

Plasmodium berghei data for CCSCC(C)NCc1nncn1C1CCCCC1 (configuration not stated) ; its INHIBITION: 37.3%

Plasmodium berghei data for `CC(C)c1nnc(CN(C)Cc2ccccc2-c2ccccc2)o1` ; its INHIBITION: 20.63%

Plasmodium berghei data for `COc1nc2ccn(CCNc3cc(C)ccn3)c(=O)c2cc1C#N` ; its INHIBITION: 55.39%

* * *

- Test system: Plasmodium berghei
- assay remarks: Screen against P. berghei liver stage (PbLuc), transformed with Luciferase, at 2uM
- Type: functional, HepG2
- condition details: tested at 2 uM
Screen size: about 68,000 compounds; about 2,700 (4%) showed an effect of 50% or more. The sample holds strong results, similar compounds and a random draw of the others, so the mix is not that of the screen.
Catalogue of INHIBITION values
Please state the figure in %; there is no need to write the unit.

# compound, INHIBITION / %
data = [
    ("CCOc1ncccc1CNc1nnc(C)c(C)c1C#N", -27.71),
    ("Cc1cc(NC(=O)CN2CCCCC2Cn2nc(C)nc2C)on1 (stereo unspecified)", 27.5),
    ("CN(C)C(CNCc1nc(-c2ccsc2)no1)c1ccco1 (stereo unspecified)", 11.18),
    ("O=C1[C@@H]2CCN(Cc3ccoc3)C[C@@H]2OCCN1Cc1cccc(F)c1", 20.41),
    ("CN(C)C(CNCc1nc(-c2ccsc2)no1)c1cccs1 (stereo unspecified)", 58.14),
]

Now look at this entry.
Consider `Cc1nc2ccc(C(=O)N3CCN(CCO)[C@@H]4CS(=O)(=O)C[C@@H]43)cc2o1` . Its measured INHIBITION is -85.34

* * *

Catalogue of INHIBITION values
- Test system: Plasmodium berghei
- assay remarks: Screen against P. berghei liver stage (PbLuc), transformed with Luciferase, at 2uM
- Format: functional, HepG2
- condition details: tested at 2 uM
Among all 68,000 compounds or so, about 2,700 (4%) showed an effect of 50% or more. What follows is part of a selection rich in strong results, with near analogues and random picks from the rest.
Your reply should be a number followed by the unit it is expressed in.

Consider `Cc1ccc2nc(C(=O)N3C[C@@H](C(=O)O)[C@H](c4cccnc4)C3)cn2c1` . Its measured INHIBITION is 1.52%

* * *

- Test system: Plasmodium berghei
- assay remarks: Screen against P. berghei liver stage (PbLuc), transformed with Luciferase, at 2uM
- Assay type: functional, HepG2
- condition details: tested at 2 uM
Among all 68,000 compounds or so, about 2,700 (4%) showed an effect of 50% or more. Only a selection was taken, and strong results are over-represented in it overall.
assay metric: INHIBITION (%)
Please state the figure in %; there is no need to write the unit.

Below are worked cases with known answers.
# molecule, INHIBITION [%]
data = [
    ("Cn1cnc(S(=O)(=O)NCC2(O)CCOc3ccccc32)c1 (configuration not stated)", 45.19),
    ("CCCOc1ccc(CNC2CCCc3c2cnn3CC)cc1OC (configuration not stated)", 33.01),
    ("Cc1ccc(CN2CCc3ncnc(-c4ccc(F)cc4)c3CC2)o1", -23.71),
]

Now look at this entry.
Consider `Cc1nc(CC(=O)N2CCN(CCOc3ccccc3)CC2)cs1` . Its measured INHIBITION is 65.5

* * *

- Tested on: Plasmodium berghei
- assay remarks: Screen against P. berghei liver stage (PbLuc), transformed with Luciferase, at 2uM
- Format: functional, HepG2
- condition details: tested at 2 uM
Among all 68,000 compounds or so, about 2,700 (4%) showed an effect of 50% or more. The list comes from a sample in which strong results are over-represented; it also holds close analogues and randomly drawn compounds.
assay metric: INHIBITION (%)
Please state the figure in %; there is no need to write the unit.

# compound, INHIBITION / %
data = [
    ("O=C(O)c1cc(C2CC2)nc2c(Cl)cnn12", 0.89),
    ("COC(=O)c1cc(C2CC2)nc2c(C#N)cnn12", 11.95),
    ("CC(c1ncc(-c2ccccc2)o1)N1CCN(C(=O)C(C)(C)C)CC1 (stereo unspecified)", -18.71),
    ("O=C1CC(c2ccccc2)C2(CCN(Cc3nccs3)CC2)N1 (stereo unspecified)", -4.2),
    ("COC(=O)c1ccc(Cl)c(NS(=O)(=O)c2cn(C)cn2)c1", -9.88),
]

Consider CCCn1ncc(C2CC(=O)NCc3nc4sc(C)cn4c32)c1C (stereo unspecified) . Its measured INHIBITION is 55.36

Consider `Cc1cc(N2CCN(c3ccc(=O)[nH]n3)CC2)nc(-c2ccncc2)n1` . Its measured INHIBITION is -2.96

Consider `COC(=O)c1ccc(Cl)c(NS(=O)(=O)c2cnn(C)c2)c1` . Its measured INHIBITION is 50.48

Consider CCn1cc(CN2CCN(CC(O)c3cc(C)ccc3C)CC2)c(C)n1 (stereo unspecified) . Its measured INHIBITION is -2.2

Consider `COC(=O)c1cc(C2CC2)nc2c(Cl)cnn12` . Its measured INHIBITION is 70.37

Consider CCCn1ncc(C2CC(=O)NCc3nc4cc(C)ccn4c32)c1C (stereo unspecified) . Its measured INHIBITION is 48.21
